Assay: VP16 transactivation inhibitors, counter-screen for SRC1 inhibitor project, cell-based, luminescence, high throughput (AID 588824)
Conditions: cell-based VP16 transactivation luciferase luminescence; at 3.6 µM; stronger effect = higher value
Activity calls are given as the source filed them. Rule as the data show it: active = inhibition above about 25%; inactive = the rest.
What inhibition was measured for each of the following?

Exercise: Sample COC(CN(C(=O)CCl)C(C(=O)NC1CCCCC1)c1ccccc1C)OC (stereo not given) — what was its inhibition?
Key: 25.1% (inactive)

Exercise: Sample Cc1ccc(S(=O)(=O)N2CCOCC2)cc1NC(=O)CN1CCN(c2ccc(O)cc2)CC1 — what was its inhibition?
Key: 11.1% (inactive)

Exercise: Sample CCNc1nc(NC(C)(C)C)nc(N2CCCCC2)n1 — what was its inhibition?
Key: 12.6% (inactive)

Exercise: Sample Cc1ccc(S(=O)(=O)/N=C2\C=C(Nc3ccc(O)cc3)C(=O)c3ccccc32)cc1 — what was its inhibition?
Key: 86.3% (active)

Exercise: Sample OCC1OC(n2cnc3c(NCc4ccccc4O)ncnc32)C(O)C1O (stereo not given) — what was its inhibition?
Key: 80% (active)

----------
Test system: transactivating tegument protein VP16 (Human herpesvirus 1)
Test: VP16 transactivation reporter inhibitors, counter-screen for SRC2 inhibitor project, cell-based, luminescence, single concentration (AID 652007)
Details: cell-based VP16 transactivation luciferase reporter, at 8.9 µM, stronger effect = higher value
recorded endpoint: inhibition (%)
Provide the reading as a plain figure in %.

Exercise: Sample Cc1ccc(C(=O)NC(=S)Nc2ccc(-c3cc4ccccc4oc3=O)cc2)c(C)c1 — what was its inhibition?
Key: -3.58

Exercise: Sample C[C@@H](C(=O)Nc1ccc2c(c1)OCCO2)n1c(=O)[nH]c2ccccc2c1=O — what was its inhibition?
Key: 3.58

Exercise: Sample NS(=O)(=O)c1ccc(NC(=O)COc2ccc(C(=O)c3ccc(F)cc3)cc2)cc1 — what was its inhibition?
Key: -1.97

Exercise: Sample COc1ccc2cc3c(N)nn(C(=O)c4ccccc4[N+](=O)[O-])c3nc2c1 — what was its inhibition?
Key: 3.64

Exercise: Sample CC(C)(C)c1ccc(C(=O)NCCOc2ccccc2F)cc1 — what was its inhibition?
Key: -20.4

Exercise: Sample CC1(C)CC(=O)C/C(=N/Nc2nc3ccccc3s2)C1 — what was its inhibition?
Key: -61.5

Exercise: Sample C=C1CCC2C(C)(C)CCC[C@]2(C)[C@H]1CC1=C(O)C(=O)C(CO)=CC1=O (stereo partly drawn) — what was its inhibition?
Key: 93.6

Exercise: Sample CC(C)COc1ccc(C(=S)N2CCCC2)cc1 — what was its inhibition?
Key: -1.55

Exercise: Sample O=C(Nc1ccc(OC(F)(F)F)cc1)c1ccc2c(c1)no[n+]2[O-] — what was its inhibition?
Key: -77.2

Exercise: Sample COc1ccc(Nc2ccnc3ccccc23)cc1 — what was its inhibition?
Key: -20.9

Exercise: Sample Cc1cc2nccc(-c3ccncc3)n2n1 — what was its inhibition?
Key: 3.85

Exercise: Sample CC(C)N(CC(=O)Nc1ccc(Cl)cc1C(F)(F)F)C(=O)CCl — what was its inhibition?
Key: 25.9

Exercise: Sample Nc1ccc(Oc2cccc(Oc3ccc(N)cc3)c2)cc1 — what was its inhibition?
Key: 88.8

Exercise: Sample O=C(O)Cc1nn(Cc2ccc(Cl)cc2)c(=O)c2ccccc12 — what was its inhibition?
Key: -13.4

Exercise: Sample O=C(O)C1CC=CCC1C(=O)Nc1ccc2c(c1)OCCO2 (stereo not drawn) — what was its inhibition?
Key: -13.1

Exercise: Sample COc1ccc2c(n1)Sc1nc3ccccc3nc1N2 — what was its inhibition?
Key: -80.4

Exercise: Sample O=C(CN1C(=O)NC2(CCCCCC2)C1=O)Nc1ccc(Br)cc1Br — what was its inhibition?
Key: -12.2

Exercise: Sample CC(C)=C1C2CCC1C1C(=O)N(c3nccs3)C(=O)C21 (stereo not drawn) — what was its inhibition?
Key: 12.1

Exercise: Sample COc1ccc(-n2c(-c3ccccc3)c[n+]3c2CCC3)cc1 — what was its inhibition?
Key: 6.63

Exercise: Sample O=c1cc(-c2ccc(O)cc2)oc2ccc3ccccc3c12 — what was its inhibition?
Key: 5.39

Exercise: Sample COc1ccc(NC(=O)/C(Cl)=C(/Cl)S(=O)(=O)Cc2ccccc2)cn1 — what was its inhibition?
Key: 80.4

Exercise: Sample COc1cc(C(O)c2nc(-c3ccncc3)cs2)ccc1F (stereo not drawn) — what was its inhibition?
Key: 4.64

Exercise: Sample O=C1NC(=S)N/C1=C/c1cccnc1 — what was its inhibition?
Key: -3.45

Exercise: Sample COc1ccc(-c2nc(NC(=O)C3CC(=O)N(c4ccc5c(c4)OCCO5)C3)sc2C)cc1 (stereo not drawn) — what was its inhibition?
Key: -6.3

Exercise: Sample O=C(Nc1ccc2c(c1)OCCO2)c1[nH]c(C(F)(F)F)nc1-c1ccccc1 — what was its inhibition?
Key: -38.1

Exercise: Sample CCOc1ccc(C(=O)C(CCC(CN(C)C)C(=O)c2ccc(OCC)cc2)CN(C)C)cc1 (stereo not drawn) — what was its inhibition?
Key: 42.6

Exercise: Sample Cc1nc(SCc2ccc(C(=O)O)cc2)nc2c1CCCC2 — what was its inhibition?
Key: 10.8

Exercise: Sample N#Cc1cccc(C=C(C(=O)c2ccccc2)c2ccccc2)c1 — what was its inhibition?
Key: 23

Exercise: Sample CCN(CC)Cc1nc2c(c(=O)[nH]1)C(CC)(CC)Cc1ccccc1-2 — what was its inhibition?
Key: -14.9

Exercise: Sample CC(C)(C)c1ccc(C(=O)N2CCCCCC2=O)cc1 — what was its inhibition?
Key: 63.6

Exercise: Sample COc1ccc(/C=C2/SC(=S)N(CCCC(=O)N3CCN(C)CC3)C2=O)cc1 — what was its inhibition?
Key: 8.95

Exercise: Sample COCC1CCN(C(=O)c2cc(COc3cccc4cnccc34)on2)CC1 — what was its inhibition?
Key: 3.58

Exercise: Sample Cc1cc(C)nc(NC(=O)c2c(F)c(F)c(F)c(C(=O)Nc3cc(C)cc(C)n3)c2F)c1 — what was its inhibition?
Key: 19.3

Exercise: Sample Cc1cc(C)c(S(=O)(=O)/N=C2\C=C(Nc3ccc(C(=O)O)cc3)C(=O)c3ccccc32)c(C)c1 — what was its inhibition?
Key: 6.44

Exercise: Sample CCCCn1c(CCC)nc([N+](=O)[O-])c1Sc1ccc(Cl)cn1 — what was its inhibition?
Key: 13.2

Exercise: Sample CC(=O)O[C@@H]1C[C@H]2C(C)(C)C(=O)C=C[C@]2(C)[C@H]2CC[C@@]3(C)[C@H](c4ccoc4)OC(=O)[C@H]4O[C@]43[C@@]21C — what was its inhibition?
Key: 35.9

Exercise: Sample COc1cccc(-c2nc(-c3ccccn3)no2)c1 — what was its inhibition?
Key: -20.4

Exercise: Sample CCC(C)Nc1nc(C)nc2c1oc1ccccc12 (stereo not drawn) — what was its inhibition?
Key: 2.3

Exercise: Sample COc1ccc(OC)c(NC(=O)c2cc(-c3cc(F)ccc3OCC3CCCO3)n[nH]2)c1 (stereo not drawn) — what was its inhibition?
Key: 1.64

Exercise: Sample C=C1C(=O)O[C@@H]2C[C@@H](C)[C@@H]3C=CC(=O)[C@@]3(C)[C@@H](OC(C)=O)[C@H]12 — what was its inhibition?
Key: 96

Exercise: Sample COc1cccc2c1C(=O)c1c(O)c3c(c(O)c1C2=O)C[C@](O)(C(C)=O)C[C@H]3O[C@@H]1C[C@@H](N)[C@@H](O)[C@@H](C)O1 — what was its inhibition?
Key: 40.6

Exercise: Sample O=C(O)CCSc1nnc(-c2ccc3c(c2)OCO3)o1 — what was its inhibition?
Key: 45.9

Exercise: Sample Cc1nc(SCC(=O)Nc2nc3ccccc3s2)c(C#N)c(C)c1C — what was its inhibition?
Key: 92.1

Cited source: PubChem BioAssay
